meta.source: patent USRE47150

- TARGET OR TEST SYSTEM: T1, human tissue factor pathway inhibitor (TFPI) (human, UniProt P10646 29-304, limits assumed)
- T1 construct: bought; also called hTFPI; human TFPI
- T1 sequence (looked up): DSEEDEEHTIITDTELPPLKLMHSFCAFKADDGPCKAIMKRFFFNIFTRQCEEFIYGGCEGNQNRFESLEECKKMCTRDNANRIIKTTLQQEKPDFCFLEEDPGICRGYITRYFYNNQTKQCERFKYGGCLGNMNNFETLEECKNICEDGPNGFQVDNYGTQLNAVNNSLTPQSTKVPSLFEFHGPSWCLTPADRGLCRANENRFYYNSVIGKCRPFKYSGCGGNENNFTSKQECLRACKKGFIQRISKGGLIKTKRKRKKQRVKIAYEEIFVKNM
- METHOD SUMMARY: competitive ELISA
Assignment: determine reported variant/HC_D62R for the given binders.
Give bare numbers, in ratio.

[[record]]
binder = "4B7 HC N32D+D62R+H107M+Y112D/LC D33R (Fab, V domains shown) VH: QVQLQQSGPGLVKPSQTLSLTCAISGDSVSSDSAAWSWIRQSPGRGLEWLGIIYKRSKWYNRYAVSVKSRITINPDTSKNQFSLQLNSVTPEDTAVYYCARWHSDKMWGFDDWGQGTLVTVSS VL: DIVMTQSPLSLPVTPGEPASISCRSSQSLVFSRGNTYLNWYLQKPGQSPQLLIYKGSNRASGVPDRFSGSGSGTDFTLKISRVEAEDVGVYYCQQYDSYPLTFGQGTKVEIKR"
property_name = "variant/HC_D62R"
units_label = "ratio"
experimental_value = 25.3

[[record]]
binder = "4B7 HC D62Q+H107M+Y112D/LC D33F+N35I (Fab, V domains shown) VH: QVQLQQSGPGLVKPSQTLSLTCAISGDSVSSNSAAWSWIRQSPGRGLEWLGIIYKRSKWYNQYAVSVKSRITINPDTSKNQFSLQLNSVTPEDTAVYYCARWHSDKMWGFDDWGQGTLVTVSS VL: DIVMTQSPLSLPVTPGEPASISCRSSQSLVFSFGITYLNWYLQKPGQSPQLLIYKGSNRASGVPDRFSGSGSGTDFTLKISRVEAEDVGVYYCQQYDSYPLTFGQGTKVEIKR"
property_name = "variant/HC_D62R"
units_label = "ratio"
experimental_value = 22.7

[[record]]
binder = "4B7 HC D62R+H107M+Y112D/LC F31I+S32R+D33F+N35I+D97T (Fab, V domains shown) VH: QVQLQQSGPGLVKPSQTLSLTCAISGDSVSSNSAAWSWIRQSPGRGLEWLGIIYKRSKWYNRYAVSVKSRITINPDTSKNQFSLQLNSVTPEDTAVYYCARWHSDKMWGFDDWGQGTLVTVSS VL: DIVMTQSPLSLPVTPGEPASISCRSSQSLVIRFGITYLNWYLQKPGQSPQLLIYKGSNRASGVPDRFSGSGSGTDFTLKISRVEAEDVGVYYCQQYTSYPLTFGQGTKVEIKR"
property_name = "variant/HC_D62R"
units_label = "ratio"
experimental_value = 20.4

[[record]]
binder = "4B7 HC N32D+D62R+H107M+Y112D/LC F31I+D33R+N35I (Fab, V domains shown) VH: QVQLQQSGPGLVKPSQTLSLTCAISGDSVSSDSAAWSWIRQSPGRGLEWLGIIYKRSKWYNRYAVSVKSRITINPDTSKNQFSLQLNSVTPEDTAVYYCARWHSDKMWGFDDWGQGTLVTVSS VL: DIVMTQSPLSLPVTPGEPASISCRSSQSLVISRGITYLNWYLQKPGQSPQLLIYKGSNRASGVPDRFSGSGSGTDFTLKISRVEAEDVGVYYCQQYDSYPLTFGQGTKVEIKR"
property_name = "variant/HC_D62R"
units_label = "ratio"
experimental_value = 29.8


In the following, a different binder is considered.
For the binder 4B7 HC N32D+D62R+Y112D/LC S32R+D33F+N35I+K55L+D97T (Fab, V domains shown) VH: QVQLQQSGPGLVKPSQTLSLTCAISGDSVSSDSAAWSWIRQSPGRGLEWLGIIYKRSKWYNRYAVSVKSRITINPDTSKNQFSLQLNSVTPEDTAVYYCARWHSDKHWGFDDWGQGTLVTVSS VL: DIVMTQSPLSLPVTPGEPASISCRSSQSLVFRFGITYLNWYLQKPGQSPQLLIYLGSNRASGVPDRFSGSGSGTDFTLKISRVEAEDVGVYYCQQYTSYPLTFGQGTKVEIKR , what variant/HC_D62R is on record?
7.8
